# assayText: soluble on expression in E. coli; label from the status in PepcDB or PDB records
readoutLabel: soluble on expression in E. coli

MGSDKIHHHHHHMTFSAKNAAGETTGGVFTVALDRCAVYGRASSGAVCGSLLESAGWRPAAGSRVLVKPNLLRAQPDGLCCTHPQVVRAAVEYALDCGAVVTVGDSPAFGSAERVAQAVGLTDALQGLGVRVVTLDDPVDCRLPSGLRVGVARAALEADALLNVPRVKVHCQMRLTLAVKNLFGCVCGVRKAVAHTRHGDRGNRFEALIVELAERLPPSGVLLDGITAMHRTGPSGGDPYLLGLLGASCSSVAMDTAVGTLLGAAPETIPLWAELRRRKQPAAFVENLHFPVLFPADFSPQGVTPDGFCIPQVLKPVSFRPATLLRSLVRRMWHRYGPSA = not soluble
MGSDKIHHHHHHMTVRQDIHSSGIPVLCLSCAARLRGVCAALDPNHLVGLAKTSSRHKLEPGVELIADAEAVDSYSNLLSGVVKLTKCLSDGRQQIVGLRFAPDFLGRPFKVKSTINVEAATSVSLCSFPKAAVERIMKESPGLEHRLLKQTLDELDEALEWMVTLGRKTAPEKVASFLLMIARNMDSSIDPAAGSACFDLPLTRADISDFLGLTNETVSRQLTRLRADGVIRIENKRHVTVDSMSRLEQRCGGRGARQPAFE = not soluble

---

# assayText: soluble on expression in E. coli; label from the status in PepcDB or PDB records
readoutLabel: soluble on expression in E. coli

MGSDKIHHHHHHMQDLVQAYKEEKNARIKERILAVKLHVVDGKSEKEVSKMLNKGYSTIKLWIGKYKKEGLDGLKDKPRSGRPRKVEEEKIKQILEDKPQKYGIQQEYWTMKTLKIALQEQGIEYKKSRLYELVHELGYNLVKPRPTNIQAEKDKWEDFKKIKKLERKALFFLDECRTVISTSIKKVLAKVGSKPVMRVNIGFSSIYVILAINAWTGEVVVSLAKRPNSESVKYFLRYFKRRVGSGRVYMVMDNYSPHKTKGTLEVCRRKGIHPVFTPPYSPELNMAEAVFKSLKNYMSNKIFYTIEDVKNCIKQFFEENKYRFNLNAITYLGLDKIEV = not soluble
MGSDKIHHHHHHMSLLSDEEVNSLSIQRMIFHVVDPALENPTFLAEVNPPQCVDFFVERVKETLKGSAYEFVPGAGIPNLLHRALPGPDGKDDFITVSHALAERFKDKVKQDKRLAPGVLMLFALKTNGNNQLVAVIKYEHQQVVSYSYVKDTNGSPVLDADGNPVPDLKTLVETFTKDRKAMQKSAVIRFQNINSSGGGTFSSSAVVIDHSSGRYRDATQHFANFLDIRRALKPSELTKRLEDAAVEAIKAHRSEVPTEIAKAPKRHVRTAMSRLDGFDFEKPEEFLGAVLQGVSPDSKILKTFKSKLASKNISTEAFKFEGATPPPAEYRRVVTNEGVTLLFSAGHEEKKNVEIQDEENGGVKITIRTTGLERNDELEKMPRLPD = not soluble

---

# assayText: soluble on expression in E. coli; label from the status in PepcDB or PDB records
readoutLabel: soluble on expression in E. coli

MTAKQFRHGGENLAVRYALADCELGRCLVAESERGICAILLGDDDATLISELQQMFPAADNAPADLMFQQHVREVIASLNQRDTPLTLPLDIRGTAFQQQVWQALRTIPCGETVSYQQLANAIGKPKAVRAVASACAANKLAIVIPCHRVVRGDGSLSGYRWGVSRKAQLLRREAENEER = soluble
MAHHHHHHMGVGFQSKKLQNFCHSGAGEMCALENCIPRWGSFPCNAPGLTPVYELSSFENVELPLIFQKSNIGDLLASTSDSVGQLNGFQARHSNTEGIKSQVSYTSVALSTTNRENLFGWVDCAALPLCSSSTAGASILLVTLLTRESRGKSCMCILDDLVCQLSNGPFNWGCGGDCHDLISISLPSEPRNHAACPIILPIAKLSRKEIWLREAAPKMDVETIIYEGDNQQHLVDDVANGTNAGSCAVMEAGCRPETALGPENVKYGDNESVTQCEVTVDITPSTEPSARCLHFSECTTPVSSNRSFMEPIPLSNMESKALRCRKFDGTSYEVLRRRAHSDALSLILKKYSEHF = not soluble
MATSFRYGHGGSYKSACAVWFDLLPALREGRICITNIHGMQPLEVIEQRLGEKFPDTARLIRISSRNPEGFELWKYFFCWAPIGAFILIDECQQIFSVNAGFKMANIHKRPFTDFEPHLPEGFSELFHSRWLTIDTSSLDNGEIDDCQRTRFDEQGRIIYPENFNNAFMEHRHYNWDIVLLTPDFAQIPKELKGVAELAKQHKGKDGIFFSNRKPRILEHDPTRTVTKPSKDDVVYNLKVPLDVHLLYASTVTGQ = not soluble
GPGSMGTMKDKNKCTFRYFEVLPIDHEPEYQNGYVCDICFMEYSEGPFFHCSKSGKDVCLRCGGKMGLTPFTALVSKVMRPTVYWSESESSRAIALCYQIHRDILGCHFIDGANLLISTRDDLPSYFIDSNSCIEKSIVLSRSDIERRFPWAGEVAEVMGVNAVSFHETSACNDQSRLCFLSSFRVEGAFIEFRFSDGFCELVHCENGTIVAIRDSAVLSCFLMGLPVRWGRSLPKAASSVLEWYLKGGQR = not soluble
MQATIYDLDGNTDGEVDLPDVFETPVRSDLIGKAVRAAQANRKQDYGSDEYAGLRTPAESFGSGRGQAHVPKLDGRARRVPQAVKGRSAHPPKTEKDRSLDLNDKERQLAVRSALAATADADLVADRGHEFDRDEVPVVVSDDFEDLVKTQEVVSLLEALDVHADIDRADETKIKAGQGSARGRKYRRPASILFVTSDEPSTAARNLAGADVATASEVNTEDLAPGGAPGRLTVFTESALAEVAER = soluble
MKRVFVFQDFKSQKFWSIDVRGTDVIVNYGKLGTDGQTQVKNFSSAGEAEKAAGKLIAEKTKKGYVETLEEVAKEMKVEAKKYALSYDEAEEGVNLMDKILKDKKLPSLKQITIGCWGYEGEDCSDIADGIVENKEKFAHFEGLFWGDIDFEEQEISWIEQVDLSPVLDAMPLLNNLKIKGTNNLSIGKKPRPNLKSLEIISGGLPDSVVEDILGSDLPNLEKLVLYVGVEDYGFDGDMNVFRPLFSKDRFPNLKWLGIVDAEEQNVVVEMFLESDILPQLETMDISAGVLTDEGARLLLDHVDKIKHLKFINMKYNYLSDEMKKELQKSLPMKIDVSDSQEYDDDYSYPMITELEHHHHHH = soluble
